- ASSAY_NAME: AUC in Wistar rat at 1 mg/kg, iv
- Format: ADME, organism-based
- Parameters: dose 1 mg/kg
- TEST_CONDITIONS: in vivo
MEASURED_PROPERTY: AUC (ng·h/mL)
State the answer as a number, implicitly in ng·h/mL.

get_value(item= Cc1cnc(Nc2ccc(C#N)cc2)nc1Nc1c(F)cc(-c2ccc(C#N)cc2)cc1F , readout=AUC) returns 1080

* * *

Kindly state selectivity ratio for each of the entries shown.
- ASSAY_NAME: Selectivity index, ratio of CC50 for cytotoxicity against human MT-4 cells to EC50 for inhibition of HIV-1 p66/51 reverse transcriptase Y188L mutant
- Format: toxicity, cell-based
- TEST_CONDITIONS: read-out: Ratio CC50/EC50
Give your answer as a number; write no unit.

The molecule listed as N#CCN(c1ccnc(Nc2ccc(C#N)cc2)n1)c1c(F)cc(-c2ccc(C#N)cc2)cc1F has a reported selectivity ratio of 465

So for C=CCN(c1ccnc(Nc2ccc(C#N)cc2)n1)c1c(F)cc(-c2ccc(C#N)cc2)cc1F , the logged selectivity ratio turned out to be 258

Just so you know, measured selectivity ratio for CCN(c1ccnc(Nc2ccc(C#N)cc2)n1)c1c(F)cc(-c2ccc(C#N)cc2)cc1F came out at 138

Record N#Cc1ccc(Nc2nccc(N(CCCO)c3c(F)cc(-c4ccc(C#N)cc4)cc3F)n2)cc1 , field selectivity ratio: 84

Form: molecule = CN(c1ccnc(Nc2ccc(C#N)cc2)n1)c1c(F)cc(-c2ccc(C#N)cc2)cc1F ; selectivity ratio = 283

The molecule CCCN(c1ccnc(Nc2ccc(C#N)cc2)n1)c1c(F)cc(-c2ccc(C#N)cc2)cc1F showed selectivity ratio equal to 114

selectivity ratio reading for COCN(c1ccnc(Nc2ccc(C#N)cc2)n1)c1c(F)cc(-c2ccc(C#N)cc2)cc1F : 294

selectivity ratio in this record for N#Cc1ccc(Nc2nccc(N(CCO)c3c(F)cc(-c4ccc(C#N)cc4)cc3F)n2)cc1 : 8

Consider N#Cc1ccc(Nc2nccc(N(CCF)c3c(F)cc(-c4ccc(C#N)cc4)cc3F)n2)cc1 . Its measured selectivity ratio is 243
